Source listed as patent US20100120688A1.

targetOrTestSystem: T1, ErbB1 extracellular domain (recombinant, soluble) (UniProt P00533 25-645, limits assumed)
T1 construct: extracellular domain; also called erbB1 ectodomain; EGFr
protocolDetails: SPR; peptide 10 µM preinjected over immobilized ErbB1, then ErbB3 (300 nM) with HRGβ1 (5 µM); competitor: erbB3-HRGβ1
Bridge positions count the residues as written; N and C are the ends. Ends that are not written are not given here.
Kindly state Percent Inhibition for each of the entries shown.
Numbers only, in %.

# binder, outcomeMeasure, obsValue
measured = [
    ("YCPIWKFPDEECY (disulfide 2-12 (inferred)) [B2-S22-APE (derived from erbB2)]", "Percent Inhibition", 80.3),
    ("YCPIYKYPDVQCY (disulfide 2-12 (inferred)) [B3-S22-APQ (derived from erbB3)]", "Percent Inhibition", 69),
    ("YCLVWKYADAGCY (disulfide 2-12 (inferred)) [B1-S22-ALG (derived from erbB1)]", "Percent Inhibition", 65.2),
    ("YCFPDEEGACY (disulfide 2-10 (inferred)) [B2-S22-AFA (derived from erbB2)]", "Percent Inhibition", 78.4),
]

Now take the following binder into account.
[Q] Supply measured Percent Inhibition of YCFIFKYADPDCY (disulfide 2-12 (inferred)) [B4-S22-AFD (derived from erbB4)] in your reply.
[A] 60.3
